- target-under-test: wild-type FLT3 receptor (Homo sapiens, UniProt P36888)
- Sequence (P36888 27-993): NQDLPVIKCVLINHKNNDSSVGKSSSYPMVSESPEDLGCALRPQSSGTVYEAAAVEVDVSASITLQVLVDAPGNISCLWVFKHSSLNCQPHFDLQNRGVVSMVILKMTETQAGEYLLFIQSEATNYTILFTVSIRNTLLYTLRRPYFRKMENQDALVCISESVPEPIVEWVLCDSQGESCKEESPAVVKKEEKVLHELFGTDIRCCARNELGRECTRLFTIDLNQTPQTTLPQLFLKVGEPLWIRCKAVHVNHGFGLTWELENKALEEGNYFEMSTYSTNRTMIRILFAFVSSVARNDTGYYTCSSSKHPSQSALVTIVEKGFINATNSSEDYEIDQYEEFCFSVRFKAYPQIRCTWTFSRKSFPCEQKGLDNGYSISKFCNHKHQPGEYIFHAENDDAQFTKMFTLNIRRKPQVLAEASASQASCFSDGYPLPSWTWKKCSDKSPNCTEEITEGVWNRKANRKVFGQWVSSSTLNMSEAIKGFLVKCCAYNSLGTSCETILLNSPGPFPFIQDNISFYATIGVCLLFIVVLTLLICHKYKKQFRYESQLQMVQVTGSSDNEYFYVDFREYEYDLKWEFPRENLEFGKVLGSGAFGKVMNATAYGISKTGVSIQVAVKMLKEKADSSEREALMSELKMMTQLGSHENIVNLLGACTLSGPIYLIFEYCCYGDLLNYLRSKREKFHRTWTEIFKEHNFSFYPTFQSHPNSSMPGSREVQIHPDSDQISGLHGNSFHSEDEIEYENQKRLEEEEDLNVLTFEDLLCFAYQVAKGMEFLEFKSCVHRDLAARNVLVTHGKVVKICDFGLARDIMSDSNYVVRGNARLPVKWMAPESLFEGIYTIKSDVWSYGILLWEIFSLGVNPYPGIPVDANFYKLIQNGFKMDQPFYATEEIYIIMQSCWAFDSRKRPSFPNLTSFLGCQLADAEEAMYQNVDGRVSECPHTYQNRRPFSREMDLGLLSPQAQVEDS
- assay: Cell-based FLT3 receptor ELISA (FLT ligand-induced phosphorylation in Baf3 FLT3 cells)
- test-settings: 100 ng/mL Flt ligand, uncertainty ±20%
readout-label: log10 of IC50 (log10 of the value in nM)

                                   molecule  number
0  COc1cc2ncnc(C3CCN(C(=O)Nc4ccc(OC5CCCC5)nc4)CC3)c2cc1OC    1.46
1  O=C1CCCN1CCOc1ccc2c(C3CCN(C(=O)Nc4ccc(N5CCOCC5)nc4)CC3)ncnc2c1    1.57
2  CN1CCN(CCOc2ccc3c(C4CCN(C(=O)Nc5ccc(N6CCCC6)cc5)CC4)ncnc3c2)CC1=O    1.18
3  O=C(Nc1ccc(N2CCCC2)cc1)N1CCC(c2ncnc3cc(Oc4cccnc4)ccc23)CC1    2.11
4  O=C(Nc1ccc(N2CCCC2)cc1)N1CCC(c2ncnc3cc(OCC4CCOCC4)ccc23)CC1    1.97
5  O=C(Nc1ccc(N2CCOCC2)cc1)N1CCC(c2ncnc3cc(N4CCC[C@H]4CO)ccc23)CC1    2.32
6  CC(C)Oc1ccc(NC(=O)N2CCC(c3ncnc4cc(OCCCN5CCCCC5)ccc34)CC2)cc1    1.04
7  COc1cc2ncnc(C3CCN(C(=O)NC4CCC(C(C)(C)C)CC4)CC3)c2cc1OC (centres unmarked)    2.42

* * *

- target-under-test: isolated kinase domain of the human FLT3 receptor (a.a. 571-993) (Homo sapiens)
- Construct: human FLT3 receptor (a.a. 571-993)
- assay: FLT3 fluorescence polarization kinase assay
- test-settings: 150 uM ATP; uncertainty ±10%
pIC50: −log10 of the molar value.
# if value of pIC50 reaches 7, tag Fulfilled; if it stays below, tag Not fulfilled

>>> df
                                 smiles_code  assigned_class
 0  COc1cc2ncnc(C3CCN(C(=O)Nc4ccc(I)cc4)CC3)c2cc1OC   Not fulfilled
 1  CC(C)Oc1ccc(NC(=O)N2CCC(c3ncnc4cc(N5CCN(C)CC5)ccc34)CC2)cc1       Fulfilled
 2  O=C(Nc1ccc(N2CCOCC2)cc1)N1CCC(c2ncnc3cc(OCCN4CCOCC4)ccc23)CC1       Fulfilled
 3  COc1cc2ncnc(C3CCN(C(=O)Nc4ccc(C5=CCNCC5)cc4)CC3)c2cc1OC   Not fulfilled
 4  CC(C)Oc1ccc(NC(=O)N2CCC(c3ncnc4cc(OCCCOS(C)(=O)=O)ccc34)CC2)cc1       Fulfilled
 5  O=C(Nc1ccc(N2CCOCC2)cc1)N1CCC(c2ncnc3cc(OCCCN4CCNCC4)ccc23)CC1       Fulfilled
 6  O=C(Nc1ccc(N2CCOCC2)nc1)N1CCC(c2ncnc3cc(OCCN4CCOC4=O)ccc23)CC1       Fulfilled
 7  O=C(Nc1ccc(N2CCOCC2)cc1)N1CCC(c2ncnc3cc(OCCN4CCOC4=O)ccc23)CC1       Fulfilled
 8  COc1cc2ncnc(C3CCN(C(=O)Nc4ccc(-c5ccco5)cc4)CC3)c2cc1OC   Not fulfilled
 9  O=C(Nc1ccc(N2CCOCC2)cc1)N1CCC(c2ncnc3cc(N4CCNC4=O)ccc23)CC1   Not fulfilled
10  COc1cc2ncnc(C3CCN(C(=O)Nc4ccccc4)CC3)c2cc1OC   Not fulfilled
11  CC(C)Oc1ccc(NC(=O)N2CCC(c3ncnc4cc(OCCCN5CCN(C)CC5)ccc34)CC2)cc1       Fulfilled
12  CN1CCC(Oc2ccc3c(C4CCN(C(=O)Nc5ccc(N6CCOCC6)cc5)CC4)ncnc3c2)CC1   Not fulfilled
13  COc1cc2ncnc(C3CCN(C(=O)Nc4ccc(C(C)(C)C)cc4)CC3)c2cc1OC       Fulfilled
